system: PIKFYVE; details: concentration: 1 μM, replicates: in singlicate; n = 1;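 note: KINOMEscan kinase panel screen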
assayReadout: %Inh (%)
Give the value in % but do not write % after it.

Fc1cccc(COc2ccc(Nc3ncnc4nn5ccccc5c34)cc2Cl)c1 [GW689066]	0
NC(=O)c1sc(-n2cnc3ccccc32)cc1OCc1ccccc1F [GSK1024306]	20

What %Inh value was documented for this molecule, Cl.Cl.c1ccc(-c2cc3ccncc3cc2OC2CCNCC2)cc1 [GSK1122999] ?
0

Record request: %Inh value, item CN1CCC(n2cnc(-c3ccc(F)cc3)c2-c2ccnc(NC3CCNCC3)n2)CC1 [SB-229482]
40

Entry Cl.Fc1ccccc1COc1ccc(Nc2ncnc3ccc(-c4nnc(C(F)(F)F)o4)cc23)cc1Cl [GW424170] has what %Inh?
0

Entry under review: COc1ccc(NC(=O)Nc2ccc(C)c(-c3ccc(C(=O)Nc4ccncc4)cc3)c2)cc1 [GSK1398475] . Reported %Inh?
0

Value lookup for %Inh; key = Cc1cc(N2CCC(NS(=O)(=O)c3ccc(F)cc3)CC2)nc(Nc2cccc(C#N)c2)n1.O=C(O)C(F)(F)F [GSK1653537]
0

Look up %Inh: CC(C)(C)c1ccc(-n2cnc3c(N)ncnc32)cc1 [SKF-97263]
0

Record request: %Inh value, item Nc1nc(-c2ccc3c(N)n[nH]c3c2)cc(N2CCCCC2)n1 [GSK2228768]
0

Given Cl.c1ccc(Cn2ccc3cc(Nc4ncnc5ccccc45)ccc32)cc1 [GW275568] , state its recorded %Inh.
0

Look up %Inh for this molecule: O=c1cc(N2CCOCC2)nc2n(Cc3cccc(Cl)c3)ccn12 [GSK2296823]
0

# get_value(readout='%Inh', item= COc1ccc(-c2oc3ncnc(N)c3c2-c2ccc(OC)cc2)cc1 [SB-589132] )
23

Given the entry Fc1cccc(COc2ccc(Nc3ncnc4sc(-c5ccc[nH]5)cc34)cc2Cl)c1 [GW707818] , report its measured %Inh.
0

State the recorded %Inh for this entry: Cn1ccc2ncnc(Oc3ccc(NC(=O)Nc4cccnc4)c(Cl)c3)c21
0

If you can, please state the reported %Inh value of Nc1nccc2scc(-c3ccc4c(c3)CCN4C(=O)Cc3cc(F)ccc3F)c12 [GSK2587663] .
0
